From: the supplement of paper PMC10065799

- target.under.test: FGFR1 (UniProt P11362)
- Sequence (P11362 whole entry, looked up): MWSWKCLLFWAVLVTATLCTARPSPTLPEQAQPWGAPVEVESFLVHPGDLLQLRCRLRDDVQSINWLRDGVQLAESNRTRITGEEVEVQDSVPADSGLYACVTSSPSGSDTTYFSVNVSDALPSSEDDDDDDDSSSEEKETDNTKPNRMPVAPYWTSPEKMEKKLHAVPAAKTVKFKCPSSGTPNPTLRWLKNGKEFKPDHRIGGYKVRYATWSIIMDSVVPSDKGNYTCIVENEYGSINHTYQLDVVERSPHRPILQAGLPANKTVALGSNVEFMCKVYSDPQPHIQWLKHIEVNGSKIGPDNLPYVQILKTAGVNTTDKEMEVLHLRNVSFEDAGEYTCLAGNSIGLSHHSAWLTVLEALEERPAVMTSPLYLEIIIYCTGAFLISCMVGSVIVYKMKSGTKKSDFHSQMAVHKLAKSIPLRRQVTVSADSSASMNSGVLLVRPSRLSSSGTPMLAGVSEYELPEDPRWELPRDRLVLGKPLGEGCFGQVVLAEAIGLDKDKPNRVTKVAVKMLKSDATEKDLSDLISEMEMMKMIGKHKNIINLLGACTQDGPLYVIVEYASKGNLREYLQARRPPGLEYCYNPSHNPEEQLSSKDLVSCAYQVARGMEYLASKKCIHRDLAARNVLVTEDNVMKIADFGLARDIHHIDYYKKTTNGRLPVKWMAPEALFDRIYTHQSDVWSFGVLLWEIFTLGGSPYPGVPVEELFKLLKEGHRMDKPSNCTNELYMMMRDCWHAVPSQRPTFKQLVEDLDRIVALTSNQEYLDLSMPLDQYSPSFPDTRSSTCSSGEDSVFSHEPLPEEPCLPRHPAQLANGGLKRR
- procedure.summary: phosphorylation enrichment, bacterial display (enrichment ratio); higher = better substrate or ligand; peptides without Tyr show the background;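 further: 11-residue human phosphosite peptides and single-mutation variants displayed on the E. coli surface, counted by deep sequencing, each peptide's frequency after selection divided by its frequency in the unselected input library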;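 further: frequency after pTyr selection over input frequency; kinase dosed for 20-30% of maximal phosphorylation in three min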
Listing of recorded phosphorylation enrichment by entry.

sequence.code | readout.type | value
NGSKGYAFVHF [PABPC5_Y147_YF] | phosphorylation enrichment | 0.5

Request: Data request, read-out phosphorylation enrichment, for LTDTVYSSSSA [OR4C12_Y71_I67T]
Result: 0.694

Request: Then what about the sequence WRPFGYPRCRR [BCS1L_Y181_R184C] ?
Result: 0.505

Request: Could you do the same for SIKDKYVTAVF [KCNH2_Y611_L615V_YF] , please?
Result: 0.491

###

- Tested on: Fer (mouse)
- procedure.summary: phosphorylation enrichment, bacterial display (enrichment ratio); higher = better substrate or ligand; peptides without Tyr show the background
Property: phosphorylation enrichment; scope: individual sequences

sequence.code | target.under.test | phosphorylation enrichment
THPFPYLSLEI [MLH1_Y293_L292P] | Fer (mouse) | 0.39
TGILLYGLASR [QARS1_Y57] | Fer (mouse) | 1.46
MRALTYCDLHK [KCNH2_Y827_V822M] | Fer (mouse) | 0.507

Request: Find the recorded phosphorylation enrichment belonging to ADCRYYAFPQM [GAMT_Y223] and report it.
Result: 8.45

Request: Ok, now WVFNHYRWFIW [BRCA2_Y2624_I2627F_YF]
Result: 0.575

Request: Similarly, TNYRFYLRSLE [MTM1_Y71_L70F] ?
Result: 0.421

###

Measured phosphorylation enrichment by item
- target.under.test: EPHB1 (UniProt P54762)
- Sequence (P54762 whole entry, looked up): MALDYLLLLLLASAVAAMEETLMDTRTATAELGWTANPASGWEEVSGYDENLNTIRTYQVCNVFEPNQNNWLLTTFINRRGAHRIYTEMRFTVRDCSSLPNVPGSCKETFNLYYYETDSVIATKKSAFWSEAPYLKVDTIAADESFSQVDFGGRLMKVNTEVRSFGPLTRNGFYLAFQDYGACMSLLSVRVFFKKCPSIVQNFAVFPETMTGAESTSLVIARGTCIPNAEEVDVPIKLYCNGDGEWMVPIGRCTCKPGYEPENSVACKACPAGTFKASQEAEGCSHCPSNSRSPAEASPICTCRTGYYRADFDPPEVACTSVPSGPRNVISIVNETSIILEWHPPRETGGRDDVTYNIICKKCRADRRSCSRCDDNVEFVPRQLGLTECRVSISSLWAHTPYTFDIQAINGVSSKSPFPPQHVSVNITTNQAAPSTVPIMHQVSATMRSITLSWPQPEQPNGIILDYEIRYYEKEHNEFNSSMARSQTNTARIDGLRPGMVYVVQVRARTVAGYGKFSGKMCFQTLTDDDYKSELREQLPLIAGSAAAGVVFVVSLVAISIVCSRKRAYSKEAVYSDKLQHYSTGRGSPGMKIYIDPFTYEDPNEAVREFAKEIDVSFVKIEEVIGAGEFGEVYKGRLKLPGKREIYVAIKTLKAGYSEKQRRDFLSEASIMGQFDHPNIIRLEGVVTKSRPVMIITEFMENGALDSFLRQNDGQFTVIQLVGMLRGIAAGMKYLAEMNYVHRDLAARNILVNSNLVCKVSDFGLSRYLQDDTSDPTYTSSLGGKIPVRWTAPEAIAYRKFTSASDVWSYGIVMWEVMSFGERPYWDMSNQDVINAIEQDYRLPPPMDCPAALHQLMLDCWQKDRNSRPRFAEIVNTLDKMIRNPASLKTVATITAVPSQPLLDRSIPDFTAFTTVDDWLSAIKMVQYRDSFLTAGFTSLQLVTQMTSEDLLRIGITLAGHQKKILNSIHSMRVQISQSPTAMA
- procedure.summary: phosphorylation enrichment, bacterial display (enrichment ratio); higher = better substrate or ligand; peptides without Tyr show the background
I'd appreciate a reply containing only the number, no unit.

Past entries and their recorded results:
sequence.code | phosphorylation enrichment
FRIGPYQPNVP [MATR3_Y784_YF] | 0.477
IHETTYNSIMK [ACTA1_Y281] | 0.332
VLALWYYYLTH [ZDHHC23_Y127] | 0.81
FFRNVYHLASV [RBL1_Y796_K794N_YF] | 0.509

API: the following record is the query input.
Request: Entry CTTIHYNYMHN [TP53_Y234_C238H] : reported phosphorylation enrichment = ?
Result: 0.528

###

- target.under.test: FGFR3 (UniProt P22607)
- Sequence (P22607 whole entry, looked up): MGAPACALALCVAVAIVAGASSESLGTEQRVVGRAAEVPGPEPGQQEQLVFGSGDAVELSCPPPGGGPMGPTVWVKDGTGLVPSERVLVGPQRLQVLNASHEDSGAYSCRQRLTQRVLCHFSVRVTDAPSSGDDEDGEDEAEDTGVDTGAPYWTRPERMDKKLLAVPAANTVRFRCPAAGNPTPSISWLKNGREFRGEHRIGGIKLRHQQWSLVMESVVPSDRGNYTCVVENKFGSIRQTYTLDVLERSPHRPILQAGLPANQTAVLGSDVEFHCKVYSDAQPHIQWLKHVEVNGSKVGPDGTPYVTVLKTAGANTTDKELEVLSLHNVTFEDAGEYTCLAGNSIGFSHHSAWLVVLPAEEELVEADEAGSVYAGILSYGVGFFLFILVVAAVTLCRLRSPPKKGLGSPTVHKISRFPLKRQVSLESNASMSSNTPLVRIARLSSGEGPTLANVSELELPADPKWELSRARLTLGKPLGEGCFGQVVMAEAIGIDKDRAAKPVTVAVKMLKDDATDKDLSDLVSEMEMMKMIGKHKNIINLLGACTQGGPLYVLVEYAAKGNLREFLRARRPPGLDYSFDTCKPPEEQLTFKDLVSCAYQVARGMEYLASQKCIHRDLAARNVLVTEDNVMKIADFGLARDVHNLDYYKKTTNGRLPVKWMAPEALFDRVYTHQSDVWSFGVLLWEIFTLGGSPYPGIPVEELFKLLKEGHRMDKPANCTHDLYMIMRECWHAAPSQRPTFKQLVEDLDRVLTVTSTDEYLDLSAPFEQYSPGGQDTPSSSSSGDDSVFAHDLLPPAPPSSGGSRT
- procedure.summary: phosphorylation enrichment, bacterial display (enrichment ratio); higher = better substrate or ligand; peptides without Tyr show the background
readout.type: phosphorylation enrichment
Could you respond with only the numeric value?

See these solved cases before continuing.
sequence.code | value
LQTYRYHGLSM [PDHA1_Y289_H292L] | 0.915
LINLKYSVEEE [PCDH19_Y27] | 0.895
SPPILYSFYLN [FCRL6_Y239_D244N] | 0.882

Request: GET /values?readout=phosphorylation enrichment&item= SVTCTYSPALT [TP53_Y126_N131T]
Result: 0.908

Request: Entry to check: DSDTDYGSGYP [RNASEH2A_Y206_L202S]
Result: 0.899

###

- target.under.test: MERTK (UniProt Q12866)
- Sequence (Q12866 whole entry, looked up): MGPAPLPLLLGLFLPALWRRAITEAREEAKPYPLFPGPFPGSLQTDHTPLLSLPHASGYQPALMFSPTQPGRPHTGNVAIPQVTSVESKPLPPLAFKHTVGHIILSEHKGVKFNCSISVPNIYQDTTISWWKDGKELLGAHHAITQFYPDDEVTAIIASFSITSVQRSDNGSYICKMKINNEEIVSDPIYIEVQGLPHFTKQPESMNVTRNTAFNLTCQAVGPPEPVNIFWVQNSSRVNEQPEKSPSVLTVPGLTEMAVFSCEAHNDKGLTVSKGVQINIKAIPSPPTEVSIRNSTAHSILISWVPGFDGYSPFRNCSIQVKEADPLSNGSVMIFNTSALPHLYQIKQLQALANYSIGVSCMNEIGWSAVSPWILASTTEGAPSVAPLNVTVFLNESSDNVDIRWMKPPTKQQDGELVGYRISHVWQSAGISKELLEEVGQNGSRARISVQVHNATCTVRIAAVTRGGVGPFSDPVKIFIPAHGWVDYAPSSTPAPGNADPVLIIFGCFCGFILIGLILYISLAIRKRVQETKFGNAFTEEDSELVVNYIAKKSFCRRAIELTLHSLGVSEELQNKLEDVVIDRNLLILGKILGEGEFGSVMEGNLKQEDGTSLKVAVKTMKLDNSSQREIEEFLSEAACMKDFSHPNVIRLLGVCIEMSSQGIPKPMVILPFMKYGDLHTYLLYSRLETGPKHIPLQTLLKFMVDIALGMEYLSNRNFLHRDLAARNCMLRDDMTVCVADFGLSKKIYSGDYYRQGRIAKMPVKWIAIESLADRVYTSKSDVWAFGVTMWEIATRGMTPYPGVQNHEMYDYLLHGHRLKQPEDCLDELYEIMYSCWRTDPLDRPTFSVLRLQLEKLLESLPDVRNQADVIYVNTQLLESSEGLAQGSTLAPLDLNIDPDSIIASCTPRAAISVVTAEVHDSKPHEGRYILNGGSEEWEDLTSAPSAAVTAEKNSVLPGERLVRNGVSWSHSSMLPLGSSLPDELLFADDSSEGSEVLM
- procedure.summary: phosphorylation enrichment, bacterial display (enrichment ratio); higher = better substrate or ligand; peptides without Tyr show the background
readout.type: phosphorylation enrichment
Respond with the number and no other words.

sequence.code | readout.type | value
HKLSSYEYDFE [BTK_Y40_Y39S] | phosphorylation enrichment | 0.911
LRYDSYWSYCN [SLC20A2_Y433_S434W] | phosphorylation enrichment | 5.37
TIQIMFGCDVG [HLA-A_Y123_Y123F] | phosphorylation enrichment | 0.503
DYLEKYYKFGC [NNMT_Y24_S29C] | phosphorylation enrichment | 0.541
REVPVYISEDS [SYNM_Y460_G462S] | phosphorylation enrichment | 1.53

Request: For the sequence HQNGTYGLHQD [SGSH_Y89_M88T] , what phosphorylation enrichment is on record?
Result: 0.414
